- Test system: Mycobacterium tuberculosis Erdman (autoluminescent)
- Protocol summary: total FIC50 (Loewe) at 50% inhibition, three-drug combination (log2); higher = more antagonistic
- Particulars: in vitro model: butyrate; time point: constant (~7 days, model-specific)
Quantity kind: total FIC50
Answer as a number with no unit attached.

Noted total FIC50 for CC(=O)NC[C@H]1CN(c2ccc(N3CCOCC3)c(F)c2)C(=O)O1 [linezolid] + COc1c(N2C[C@@H]3CCCN[C@@H]3C2)c(F)cc2c(=O)c(C(=O)O)cn(C3CC3)c12 [moxifloxacin] + CO[C@H]1/C=C/O[C@@]2(C)Oc3c(C)c(O)c4c(O)c(c(/C=N/N5CCN(C6CCCC6)CC5)c(O)c4c3C2=O)NC(=O)/C(C)=C\C=C\[C@H](C)[C@H](O)[C@@H](C)[C@@H](O)[C@@H](C)[C@H](OC(C)=O)[C@@H]1C [rifapentine] , tested on Mycobacterium tuberculosis Erdman (autoluminescent): 0.365

# total FIC50 measured on Mycobacterium tuberculosis Erdman (autoluminescent) for item COc1nc2ccc(Br)cc2cc1[C@@H](c1ccccc1)[C@@](O)(CCN(C)C)c1cccc2ccccc12 [bedaquiline] + CC(C)/N=c1\cc2n(-c3ccc(Cl)cc3)c3ccccc3nc-2cc1Nc1ccc(Cl)cc1 [clofazimine] + CC(=O)NC[C@H]1CN(c2ccc(N3CCOCC3)c(F)c2)C(=O)O1 [linezolid] = 0.0722

Tested system Mycobacterium tuberculosis Erdman (autoluminescent); total FIC50 recorded for CC(=O)NC[C@H]1CN(c2ccc(N3CCOCC3)c(F)c2)C(=O)O1 [linezolid] + O=[N+]([O-])c1cn2c(n1)OC[C@@H](OCc1ccc(OC(F)(F)F)cc1)C2 [pretomanid] + CO[C@H]1/C=C/O[C@@]2(C)Oc3c(C)c(O)c4c(O)c(c(/C=N/N5CCN(C)CC5)c(O)c4c3C2=O)NC(=O)/C(C)=C\C=C\[C@H](C)[C@H](O)[C@@H](C)[C@@H](O)[C@@H](C)[C@H](OC(C)=O)[C@@H]1C [rifampicin] was 0.127

----------
- System: Mycobacterium tuberculosis Erdman (autoluminescent)
- Protocol summary: FIC90 (Loewe) at 90% inhibition (log2); higher = more antagonistic
- Particulars: in vitro model: cholesterol 0.05 mM; time point: terminal (~4-5 doublings, model-specific)
Please respond with reported FIC90 for every item in the list.
Respond with the number and no other words.

So the reported FIC90 for CC(C)/N=c1\cc2n(-c3ccc(Cl)cc3)c3ccccc3nc-2cc1Nc1ccc(Cl)cc1 [clofazimine] + NNC(=O)c1ccncc1 [isoniazid] , on Mycobacterium tuberculosis Erdman (autoluminescent), turned out to be 0.0937

Record CC[C@@H](CO)NCCN[C@@H](CC)CO [ethambutol] + O=[N+]([O-])c1cn2c(n1)OC[C@@H](OCc1ccc(OC(F)(F)F)cc1)C2 has Mycobacterium tuberculosis Erdman (autoluminescent) FIC90 equal to 1.01

The molecule CC(C)/N=c1\cc2n(-c3ccc(Cl)cc3)c3ccccc3nc-2cc1Nc1ccc(Cl)cc1 [clofazimine] + O=[N+]([O-])c1cn2c(n1)OC[C@@H](OCc1ccc(OC(F)(F)F)cc1)C2 [pretomanid] , tested on Mycobacterium tuberculosis Erdman (autoluminescent), showed FIC90 of 0.298

----------
- Test system: Mycobacterium tuberculosis Erdman (autoluminescent)
- Protocol summary: total FIC50 (Loewe) at 50% inhibition, three-drug combination (log2); higher = more antagonistic
- Particulars: in vitro model: dormancy (butyrate + nitrate, low O2); time point: terminal (~4-5 doublings, model-specific)
Respond with 1 for total FIC50 values of 0.06 and above, -1 for values below.

Query :: Record COc1nc2ccc(Br)cc2cc1[C@@H](c1ccccc1)[C@@](O)(CCN(C)C)c1cccc2ccccc12 [bedaquiline] + NNC(=O)c1ccncc1 [isoniazid] + CC(=O)NC[C@H]1CN(c2ccc(N3CCOCC3)c(F)c2)C(=O)O1 [linezolid] ; criterion: total FIC50 no lower than 0.06. Met?
Result :: 1

Query :: Is total FIC50 for CC(C)/N=c1\cc2n(-c3ccc(Cl)cc3)c3ccccc3nc-2cc1Nc1ccc(Cl)cc1 [clofazimine] + CC[C@@H](CO)NCCN[C@@H](CC)CO [ethambutol] + COc1c(N2C[C@@H]3CCCN[C@@H]3C2)c(F)cc2c(=O)c(C(=O)O)cn(C3CC3)c12 [moxifloxacin] at or above 0.06?
Result :: -1

Query :: Entry O=[N+]([O-])c1cn2c(n1)OC[C@@H](OCc1ccc(OC(F)(F)F)cc1)C2 [pretomanid] + NC(=O)c1cnccn1 [pyrazinamide] + CO[C@H]1/C=C/O[C@@]2(C)Oc3c(C)c(O)c4c(O)c(c(/C=N/N5CCN(C)CC5)c(O)c4c3C2=O)NC(=O)/C(C)=C\C=C\[C@H](C)[C@H](O)[C@@H](C)[C@@H](O)[C@@H](C)[C@H](OC(C)=O)[C@@H]1C [rifampicin] : is its total FIC50 no less than 0.06?
Result :: -1

Query :: total FIC50 >= 0.06 for CC[C@@H](CO)NCCN[C@@H](CC)CO [ethambutol] + COc1c(N2C[C@@H]3CCCN[C@@H]3C2)c(F)cc2c(=O)c(C(=O)O)cn(C3CC3)c12 [moxifloxacin] + CO[C@H]1/C=C/O[C@@]2(C)Oc3c(C)c(O)c4c(O)c(c(/C=N/N5CCN(C)CC5)c(O)c4c3C2=O)NC(=O)/C(C)=C\C=C\[C@H](C)[C@H](O)[C@@H](C)[C@@H](O)[C@@H](C)[C@H](OC(C)=O)[C@@H]1C [rifampicin] ?
Result :: 1

Query :: Check the entry CC[C@@H](CO)NCCN[C@@H](CC)CO [ethambutol] + CC(=O)NC[C@H]1CN(c2ccc(N3CCOCC3)c(F)c2)C(=O)O1 [linezolid] + CO[C@H]1/C=C/O[C@@]2(C)Oc3c(C)c(O)c4c(O)c(c(/C=N/N5CCN(C6CCCC6)CC5)c(O)c4c3C2=O)NC(=O)/C(C)=C\C=C\[C@H](C)[C@H](O)[C@@H](C)[C@@H](O)[C@@H](C)[C@H](OC(C)=O)[C@@H]1C [rifapentine] : does total FIC50 equal or exceed 0.06?
Result :: -1

Query :: Evaluate CC(C)/N=c1\cc2n(-c3ccc(Cl)cc3)c3ccccc3nc-2cc1Nc1ccc(Cl)cc1 [clofazimine] + NNC(=O)c1ccncc1 [isoniazid] + COc1c(N2C[C@@H]3CCCN[C@@H]3C2)c(F)cc2c(=O)c(C(=O)O)cn(C3CC3)c12 [moxifloxacin] : total FIC50 at minimum 0.06?
Result :: -1

----------
Task for the reader: assign each of the following compounds its reported GRinf.
- System: Mycobacterium tuberculosis Erdman (autoluminescent)
- Protocol summary: GRinf, maximum normalised growth rate inhibition (unitless (-1 to 1)); higher = less effect (negative = killing)
- Particulars: in vitro model: dormancy (butyrate + nitrate, low O2); time point: constant (~7 days, model-specific)
No unit in the answer, only the number.

The measured GRinf associated with CO[C@H]1/C=C/O[C@@]2(C)Oc3c(C)c(O)c4c(O)c(c(/C=N/N5CCN(C6CCCC6)CC5)c(O)c4c3C2=O)NC(=O)/C(C)=C\C=C\[C@H](C)[C@H](O)[C@@H](C)[C@@H](O)[C@@H](C)[C@H](OC(C)=O)[C@@H]1C [rifapentine] + CO[C@H]1/C=C/O[C@@]2(C)Oc3c(C)c(O)c4c(O)c(c(/C=N/N5CCN(C)CC5)c(O)c4c3C2=O)NC(=O)/C(C)=C\C=C\[C@H](C)[C@H](O)[C@@H](C)[C@@H](O)[C@@H](C)[C@H](OC(C)=O)[C@@H]1C [rifampicin] reads 0.162

Record CC[C@@H](CO)NCCN[C@@H](CC)CO [ethambutol] + CC(=O)NC[C@H]1CN(c2ccc(N3CCOCC3)c(F)c2)C(=O)O1 [linezolid] , field GRinf: 0.461

Reported GRinf of NNC(=O)c1ccncc1 [isoniazid] + NC(=O)c1cnccn1 [pyrazinamide] : 0.244

----------
Kindly state Einf for each of the entries shown.
- Tested on: Mycobacterium tuberculosis Erdman (autoluminescent)
- Protocol summary: Einf, fitted maximum growth inhibition of three-drug combination (fraction); higher = stronger maximal inhibition
- Particulars: in vitro model: cholesterol 0.05 mM; time point: constant (~7 days, model-specific)
Number only, no unit.

Measured Einf for this entry COc1c(N2C[C@@H]3CCCN[C@@H]3C2)c(F)cc2c(=O)c(C(=O)O)cn(C3CC3)c12 [moxifloxacin] + NC(=O)c1cnccn1 [pyrazinamide] + CO[C@H]1/C=C/O[C@@]2(C)Oc3c(C)c(O)c4c(O)c(c(/C=N/N5CCN(C)CC5)c(O)c4c3C2=O)NC(=O)/C(C)=C\C=C\[C@H](C)[C@H](O)[C@@H](C)[C@@H](O)[C@@H](C)[C@H](OC(C)=O)[C@@H]1C [rifampicin] on Mycobacterium tuberculosis Erdman (autoluminescent): 0.6

Param item: NNC(=O)c1ccncc1 [isoniazid] + NC(=O)c1cnccn1 [pyrazinamide] + CO[C@H]1/C=C/O[C@@]2(C)Oc3c(C)c(O)c4c(O)c(c(/C=N/N5CCN(C6CCCC6)CC5)c(O)c4c3C2=O)NC(=O)/C(C)=C\C=C\[C@H](C)[C@H](O)[C@@H](C)[C@@H](O)[C@@H](C)[C@H](OC(C)=O)[C@@H]1C [rifapentine] ; param system: Mycobacterium tuberculosis Erdman (autoluminescent); output Einf: 0.706

Lab note: compound CC[C@@H](CO)NCCN[C@@H](CC)CO [ethambutol] + NNC(=O)c1ccncc1 [isoniazid] + O=[N+]([O-])c1cn2c(n1)OC[C@@H](OCc1ccc(OC(F)(F)F)cc1)C2 [pretomanid] tested on Mycobacterium tuberculosis Erdman (autoluminescent); recorded Einf was 0.715

# value of Einf, Mycobacterium tuberculosis Erdman (autoluminescent), item CC(C)/N=c1\cc2n(-c3ccc(Cl)cc3)c3ccccc3nc-2cc1Nc1ccc(Cl)cc1 [clofazimine] + NNC(=O)c1ccncc1 [isoniazid] + CC(=O)NC[C@H]1CN(c2ccc(N3CCOCC3)c(F)c2)C(=O)O1 [linezolid] = 0.689

Where do the numbers come from? From the supplement of paper PMC8617591.
